Molecular target: Focal adhesion kinase 1 (Homo sapiens)
Experiment: small-molecule microarray binders of FAK, primary screen, biochemical, 635/667 nm fluorescence, BSA, DTT (AID 1130);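 further: composite of spot emission at 667 nm and signal to noise over triplicate slides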
Settings: PTK2 binding, 635 nm fluorescence, higher = more signal
READOUT TYPE: composite z-score

INSERT INTO measurements (compound, result) VALUES
  ('COc1cc(NN2C(C(O)c3ccco3)C=CC3C(=O)N(c4ccccc4)C(=O)C32)cc(OC)c1OC (centres undefined)', 0.21),
  ('COC(=O)[C@@]1(Cc2ccccc2)[C@H]2c3cc(C(=O)N(C)C)n(Cc4ccsc4Br)c3C[C@H]2CN1C(=O)c1ccccc1', 0.483),
  ('O=C(NC1CC1)[C@@H]1c2ccccc2C(=O)N(Cc2ccccc2Cl)[C@H]1c1ccc(CO)cc1', 1.06),
  ('COc1ccc(C#Cc2ccc3c(c2)[C@]2(C(=O)N3)[C@H](C(=O)NC[C@H](O)c3ccccc3)[C@H]3C(=O)O[C@H](c4ccccc4)[C@H](c4ccccc4)N3[C@@H]2c2ccc(O)cc2)cc1', 0.521);

###

Test: inhibitors of hydroxyurea-induced Chk1 phosphorylation, primary screen, imaging, HeLa, phospho-Chk1 antibody, percent positive cells (AID 1186)
Conditions: hydroxyurea-induced phospho-Chk1 immunofluorescence imaging, higher = more signal
Class definitions on z-score: bottom bin: < -0.2; middle bin: ≥ -0.2 and < 0.2; top bin: ≥ 0.2

INSERT INTO results (smiles_input, class) VALUES
  ('COc1cc2c(cc1OC)CN(C(=O)[C@@H]1[C@H]3C(=O)O[C@H](c4ccccc4)[C@H](c4ccccc4)N3[C@H](c3ccccc3OCCO)[C@@]13C(=O)Nc1ccc(C#CCCO)cc13)CC2', 'middle bin'),
  ('COC(=O)C(CC#Cc1ccc2c(c1)[C@]1(C(=O)N2)[C@H](c2ccc(OCCO)cc2)N2[C@H](c3ccccc3)[C@H](c3ccccc3)OC(=O)[C@H]2[C@@H]1C(=O)N1CCc2cc(OC)c(OC)cc2C1)C(=O)OC', 'middle bin'),
  ('COc1cc2c(cc1OC)CN(C(=O)[C@H]1[C@@H]3C(=O)O[C@@H](c4ccccc4)[C@@H](c4ccccc4)N3[C@@H](c3ccc(O)cc3)[C@]13C(=O)Nc1ccc(C#CCCO)cc13)CC2', 'middle bin'),
  ('Cc1ccc(S[C@]2(C(=O)O)CC(=O)N(C(C)C)[C@@H]2c2ccc(CO)cc2I)cc1', 'bottom bin'),
  ('NCCCCCCNC(=O)[C@@H]1C[C@@H]2C(=O)NCC(=O)N2[C@@H]1c1ccc(O)cc1', 'top bin'),
  ('C=CC[C@]1(C(=O)NCc2ccccc2)N=C(c2ccc(OCCCO)cc2)O[C@H]1c1ccccc1N=[N+]=[N-]', 'bottom bin'),
  ('CCS[C@H]1[C@@H](C(=O)O)[C@H](c2ccc(C)cc2)N(S(=O)(=O)c2ccc(C)cc2)[C@@H]1CC', 'bottom bin'),
  ('CN(C)CCCC[C@@H]1NC(=O)[C@H]2C[C@@H](C(=O)NCCCCCCN)[C@@H](c3ccc(O)cc3)N2C1=O', 'top bin'),
  ('CC(=O)NCCCC[C@@H]1NC(=O)[C@@H]2C[C@H](C(=O)NCCCCCNC(=O)CS)[C@H](c3cccc(OCCO)c3)N2C1=O', 'bottom bin'),
  ('CCCC#C[Si](O[C@H](CC)c1cn(Cc2cccc(Cl)c2)nn1)(C(C)C)C(C)C', 'bottom bin'),
  ('CC(C)C[C@@H]1NC(=O)[C@@H]2C[C@H](C(=O)O)[C@H](c3cccc(OCCO)c3)N2C1=O', 'middle bin'),
  ('CC(=O)NCCCC[C@@H]1NC(=O)[C@H]2C[C@@H](C(=O)NCCCCCCNC(=O)CS)[C@@H](c3ccc(O)cc3)N2C1=O', 'top bin'),
  ('CCCCCCc1nc(-c2cc(C)c(OC)c(C)c2)cc2c1[Si](C(C)C)(C(C)C)OC2', 'middle bin'),
  ('CC(C)C[C@@H]1NC(=O)[C@@H]2C[C@H](C(=O)NCc3ccc(F)cc3)[C@H](c3cccc(OCCO)c3)N2C1=O', 'top bin');

###

Assay: COS7 lysate on small-molecule microarray, probe aHis, 635 nm (AID 1123);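 further: z-score combines 667nm fluorescence intensity with signal-to-noise per printed compound spot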
Conditions: COS7 cell lysate, fluorescence, higher = more signal
READOUT TYPE: composite z-score

INSERT INTO measurements (compound, result) VALUES
  ('CCOC(=O)C[C@H]1[C@H](OC(=O)c2ccc(C(=O)c3ccccc3)cc2)[C@@H](NC(=O)c2ccc3ccccc3n2)c2cc(OCCCO)ccc2N1C(=O)c1ccccc1', 0.994),
  ('NC(=O)[C@@H]1[C@H]2C(=O)O[C@H](c3ccccc3)[C@H](c3ccccc3)N2[C@H](c2ccc(O)cc2)[C@@]12C(=O)Nc1ccccc12', 2.37),
  ('O=C(CS)NCCCCCCNC(=O)[C@@H]1C[C@@H]2C(=O)NCC(=O)N2[C@@H]1c1cccc(OCCO)c1', 2.91),
  ('CCOC(=O)C[C@H]1[C@H](OC(=O)c2ccccc2-c2ccccc2)[C@@H](NC(=O)CC(C)C)c2cc(OCCCO)ccc2N1C(=O)Cc1ccc(OC)cc1', 0.761),
  ('CN1C(=O)C2C=CC(C(O)c3ccc([N+](=O)[O-])cc3)N(N3CCCCC3)C2C1=O (configuration not stated)', 1.55),
  ('COC(=O)[C@@]1(CCS(=O)(=O)c2ccccc2)N=C(c2ccc(OCCCO)cc2)O[C@H]1c1ccccc1CN=[N+]=[N-]', 2.4),
  ('C=C(CCCC)/C(=C/C[C@@H](OC(=O)c1ccncc1)c1ccc(OCCO)cc1)c1cc(C(=O)OC)ccc1OC', 0.517);

###

# z-score annotations
Assay: P. aeruginosa biofilm formation inhibitors, primary screen, PAO1 strain, BacTiter-Glo luminescence, LB-PBS (AID 1144)
Conditions: 12 h, higher = more signal
The source made the active and inactive calls. No rule for the calls is given here.
READOUT TYPE: z-score

INSERT INTO results (compound, result) VALUES
  ('CCOC(=O)C1=C[C@@H](C(C)(C)C)N(S(=O)(=O)c2ccc(C)cc2)[C@H]1c1ccc(F)cc1', '0.673 (inactive)'),
  ('CCN(CC)c1ccc(N2CC=CC34O[C@@H]5C=CCCOC(=O)C5[C@H]3C(=O)N(CCCCCCO)[C@@H]4C2=O)cc1 (stereo partly drawn)', '-1.35 (inactive)'),
  ('COCCOC(=O)N1C(=O)[C@@]2(c3ccccc31)[C@H](C(=O)N1CCc3cc(OC)c(OC)cc3C1)[C@H]1C(=O)O[C@H](c3ccccc3)[C@H](c3ccccc3)N1[C@@H]2c1ccc(OCCO)cc1', '0.73 (inactive)');

###

Assay: CREB reporter modulators without forskolin, primary screen, cell-based, PC12, CRE-LacZ reporter, unstimulated (AID 1145)
Conditions: no forskolin, luminescence, 4.5 h, higher = more signal, called active from +8 up or from −8 down
Answer criterion not met if z-score is under 2, and criterion met if it is 2 or more.

INSERT INTO measurements (compound, class) VALUES
  ('C=CCOC(=O)[C@H]1[C@@H]2C(=O)O[C@@H](c3ccccc3)[C@@H](c3ccccc3)N2[C@@H](c2ccc(OCCOC(=O)[C@H]3C[C@H]4C(=O)N[C@@H](CCCCNC(C)=O)C(=O)N4[C@H]3c3ccc(O)cc3)cc2)[C@]12C(=O)Nc1ccc(I)cc12', 'criterion met'),
  ('CC(=O)NCCCC[C@@H]1NC(=O)[C@H]2C[C@@H](C(=O)NCCCCCCNC(=O)CS)[C@@H](c3ccc(O)cc3)N2C1=O', 'criterion not met'),
  ('O=C1C[C@@](C(=O)NCCN2CCOCC2)(c2ccc([N+](=O)[O-])cc2)[C@@H](c2ccc(CO)cc2)N1CC12CC3CC(CC(C3)C1)C2', 'criterion not met'),
  ('O=C1[C@@]23C=C(Br)[C@H](C[C@@H]2CCOC3)[C@@]12CO2', 'criterion not met'),
  ('C=CCC(OC(C)=O)[C@@H]1[C@@H](N(Cc2ccc(-c3ccccc3)cc2)C(=O)c2cccc3ccccc23)c2cc(OCCCO)ccc2N1C(=O)c1ccc(-c2ccccc2)cc1 (stereo partly specified)', 'criterion not met'),
  ('C=C[C@@H](COC(=O)OC(C)(C)C)N(Cc1ccc(OC)cc1)S(=O)(=O)c1ccc(Br)cc1', 'criterion met');

Numbers sourced from PubChem BioAssay.
